Test system: HμRELhumanPool 96-well hepatic co-culture
Run Description: Hμrel Low Clearance Assay
Type: in vitro ADME, human
Condition Info: human hepatic co-culture, 1 μM substrate, 0-72 hr incubation

{"Molecule": "CC(C)(C)NC(=O)CN1CCC(CNC(=O)c2cc(F)cc(Cl)c2)CC1 [Control, reference compound]", "System Name": "HμRELhumanPool 96-well hepatic co-culture", "Half-Life (h)": 22.17}
{"Molecule": "[2H]C([2H])([2H])C(C)(C)NC(=O)CN1CCC(CNC(=O)c2cc(F)cc(Cl)c2)CC1 [Compound 7]", "System Name": "HμRELhumanPool 96-well hepatic co-culture", "Half-Life (h)": 21.83}
{"Molecule": "[2H]C([2H])(C(=O)NC(C([2H])([2H])[2H])(C([2H])([2H])[2H])C([2H])([2H])[2H])N1CCC(CNC(=O)c2cc(F)cc(Cl)c2)CC1 [Compound 15]", "System Name": "HμRELhumanPool 96-well hepatic co-culture", "Half-Life (h)": 22.67}
{"Molecule": "[2H]C([2H])(NC(=O)c1cc(F)cc(Cl)c1)C1CCN(CC(=O)NC(C)(C)C([2H])([2H])[2H])CC1 [Compound 10]", "System Name": "HμRELhumanPool 96-well hepatic co-culture", "Half-Life (h)": 33.83}

* * *

System Name: Recombinant CYP3A4 Supersomes (Homo sapiens)
Construct: purchased
Sequence (P08684 whole entry): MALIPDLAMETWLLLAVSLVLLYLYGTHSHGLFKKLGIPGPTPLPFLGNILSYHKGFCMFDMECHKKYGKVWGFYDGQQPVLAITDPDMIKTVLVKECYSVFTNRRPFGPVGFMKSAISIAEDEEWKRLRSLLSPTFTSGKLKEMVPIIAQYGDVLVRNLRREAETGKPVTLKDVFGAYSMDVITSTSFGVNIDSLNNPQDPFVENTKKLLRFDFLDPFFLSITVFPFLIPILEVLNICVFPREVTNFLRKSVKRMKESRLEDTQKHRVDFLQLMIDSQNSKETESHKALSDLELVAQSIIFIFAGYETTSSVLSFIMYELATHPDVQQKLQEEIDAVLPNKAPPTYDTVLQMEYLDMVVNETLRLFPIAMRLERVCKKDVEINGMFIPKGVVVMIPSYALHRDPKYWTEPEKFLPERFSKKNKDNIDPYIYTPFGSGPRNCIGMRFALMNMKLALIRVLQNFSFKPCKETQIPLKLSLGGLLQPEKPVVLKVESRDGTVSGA
Run Description: Recombinant CYP3A4 Clearance Assay
Assay type: in vitro ADME
Condition Info: recombinant CYP3A4 50 pmol/mL, 1 μM substrate, NADPH, 0-120 minutes

{"Molecular String": "[2H]C1([2H])CC(CNC(=O)c2cc(F)cc(Cl)c2)CC([2H])([2H])N1CC(=O)NC(C)(C)C([2H])([2H])[2H]", "Half-Life [min]": 9.0}
{"Molecular String": "[2H]C([2H])(C(=O)NC(C)(C)C([2H])([2H])[2H])N1CCC(CNC(=O)c2cc(F)cc(Cl)c2)CC1", "Half-Life [min]": 8.3}
{"Molecular String": "[2H]C1([2H])N(CC(=O)NC(C)(C)C)C([2H])([2H])C([2H])([2H])C([2H])(CNC(=O)c2cc(F)cc(Cl)c2)C1([2H])[2H]", "Half-Life [min]": 12.1}

* * *

Tested on: HμRELhumanPool 96-well hepatic co-culture
Run Description: Hμrel Low Clearance Assay
Type: in vitro ADME, human
Condition Info: human hepatic co-culture, 1 μM substrate, 0-72 hr incubation
Protocol: The Hμrel Low Clearance Assay was performed to determine the stability of deuterated compounds described herein and calculate changes in clearance relative to the control compound (undeuterated compound) that has the following structure: […] LC-MS/MS chromatograms were analyzed by peak area ratio (test article peak area/internal standard peak area) and natural log transformed, and plotted against time. The slope of the line was determined to calculate elimination rate constant. […]

{"Molecule": "[2H]C1([2H])CC(CNC(=O)c2cc(F)cc(Cl)c2)CC([2H])([2H])N1CC(=O)NC(C([2H])([2H])[2H])(C([2H])([2H])[2H])C([2H])([2H])[2H] [Compound 16]", "System Name": "HμRELhumanPool 96-well hepatic co-culture", "Half-Life (h)": 28.33}
{"Molecule": "[2H]C([2H])(NC(=O)c1cc(F)cc(Cl)c1)C1CCN(CC(=O)NC(C([2H])([2H])[2H])(C([2H])([2H])[2H])C([2H])([2H])[2H])CC1 [Compound 5]", "System Name": "HμRELhumanPool 96-well hepatic co-culture", "Half-Life (h)": 23.33}
{"Molecule": "[2H]C1([2H])CC(CNC(=O)c2cc(F)cc(Cl)c2)CC([2H])([2H])N1CC(=O)NC(C)(C)C([2H])([2H])[2H] [Compound 22]", "System Name": "HμRELhumanPool 96-well hepatic co-culture", "Half-Life (h)": 35.33}
{"Molecule": "[2H]C1([2H])CN(CC(=O)NC(C)(C([2H])([2H])[2H])C([2H])([2H])[2H])CC([2H])([2H])C1CNC(=O)c1cc(F)cc(Cl)c1 [Compound 23]", "System Name": "HμRELhumanPool 96-well hepatic co-culture", "Half-Life (h)": 34}
{"Molecule": "[2H]C1([2H])CC(CNC(=O)c2cc(F)cc(Cl)c2)CC([2H])([2H])N1CC(=O)NC(C)(C)C [Compound 2]", "System Name": "HμRELhumanPool 96-well hepatic co-culture", "Half-Life (h)": 25.5}
{"Molecule": "[2H]C([2H])([2H])C(C)(NC(=O)CN1CCC(CNC(=O)c2cc(F)cc(Cl)c2)CC1)C([2H])([2H])[2H] [Compound 14]", "System Name": "HμRELhumanPool 96-well hepatic co-culture", "Half-Life (h)": 34.83}
{"Molecule": "[2H]C([2H])(C(=O)NC(C)(C)C)N1CCC(CNC(=O)c2cc(F)cc(Cl)c2)CC1 [Compound 6]", "System Name": "HμRELhumanPool 96-well hepatic co-culture", "Half-Life (h)": 21.83}
{"Molecule": "[2H]C([2H])(C(=O)NC(C)(C)C([2H])([2H])[2H])N1CCC(CNC(=O)c2cc(F)cc(Cl)c2)CC1 [Compound 21]", "System Name": "HμRELhumanPool 96-well hepatic co-culture", "Half-Life (h)": 21.17}
{"Molecule": "[2H]C1([2H])CN(CC(=O)NC(C)(C)C([2H])([2H])[2H])CC([2H])([2H])C1CNC(=O)c1cc(F)cc(Cl)c1 [Compound 9]", "System Name": "HμRELhumanPool 96-well hepatic co-culture", "Half-Life (h)": 26.17}
